The measured values listed here are drawn from ChEMBL document CHEMBL3124772.

This listing pairs molecules with measured pIC50.
Target: Sodium channel protein type 5 subunit alpha (Homo sapiens, UniProt Q14524)
Sequence (Q14524 whole entry): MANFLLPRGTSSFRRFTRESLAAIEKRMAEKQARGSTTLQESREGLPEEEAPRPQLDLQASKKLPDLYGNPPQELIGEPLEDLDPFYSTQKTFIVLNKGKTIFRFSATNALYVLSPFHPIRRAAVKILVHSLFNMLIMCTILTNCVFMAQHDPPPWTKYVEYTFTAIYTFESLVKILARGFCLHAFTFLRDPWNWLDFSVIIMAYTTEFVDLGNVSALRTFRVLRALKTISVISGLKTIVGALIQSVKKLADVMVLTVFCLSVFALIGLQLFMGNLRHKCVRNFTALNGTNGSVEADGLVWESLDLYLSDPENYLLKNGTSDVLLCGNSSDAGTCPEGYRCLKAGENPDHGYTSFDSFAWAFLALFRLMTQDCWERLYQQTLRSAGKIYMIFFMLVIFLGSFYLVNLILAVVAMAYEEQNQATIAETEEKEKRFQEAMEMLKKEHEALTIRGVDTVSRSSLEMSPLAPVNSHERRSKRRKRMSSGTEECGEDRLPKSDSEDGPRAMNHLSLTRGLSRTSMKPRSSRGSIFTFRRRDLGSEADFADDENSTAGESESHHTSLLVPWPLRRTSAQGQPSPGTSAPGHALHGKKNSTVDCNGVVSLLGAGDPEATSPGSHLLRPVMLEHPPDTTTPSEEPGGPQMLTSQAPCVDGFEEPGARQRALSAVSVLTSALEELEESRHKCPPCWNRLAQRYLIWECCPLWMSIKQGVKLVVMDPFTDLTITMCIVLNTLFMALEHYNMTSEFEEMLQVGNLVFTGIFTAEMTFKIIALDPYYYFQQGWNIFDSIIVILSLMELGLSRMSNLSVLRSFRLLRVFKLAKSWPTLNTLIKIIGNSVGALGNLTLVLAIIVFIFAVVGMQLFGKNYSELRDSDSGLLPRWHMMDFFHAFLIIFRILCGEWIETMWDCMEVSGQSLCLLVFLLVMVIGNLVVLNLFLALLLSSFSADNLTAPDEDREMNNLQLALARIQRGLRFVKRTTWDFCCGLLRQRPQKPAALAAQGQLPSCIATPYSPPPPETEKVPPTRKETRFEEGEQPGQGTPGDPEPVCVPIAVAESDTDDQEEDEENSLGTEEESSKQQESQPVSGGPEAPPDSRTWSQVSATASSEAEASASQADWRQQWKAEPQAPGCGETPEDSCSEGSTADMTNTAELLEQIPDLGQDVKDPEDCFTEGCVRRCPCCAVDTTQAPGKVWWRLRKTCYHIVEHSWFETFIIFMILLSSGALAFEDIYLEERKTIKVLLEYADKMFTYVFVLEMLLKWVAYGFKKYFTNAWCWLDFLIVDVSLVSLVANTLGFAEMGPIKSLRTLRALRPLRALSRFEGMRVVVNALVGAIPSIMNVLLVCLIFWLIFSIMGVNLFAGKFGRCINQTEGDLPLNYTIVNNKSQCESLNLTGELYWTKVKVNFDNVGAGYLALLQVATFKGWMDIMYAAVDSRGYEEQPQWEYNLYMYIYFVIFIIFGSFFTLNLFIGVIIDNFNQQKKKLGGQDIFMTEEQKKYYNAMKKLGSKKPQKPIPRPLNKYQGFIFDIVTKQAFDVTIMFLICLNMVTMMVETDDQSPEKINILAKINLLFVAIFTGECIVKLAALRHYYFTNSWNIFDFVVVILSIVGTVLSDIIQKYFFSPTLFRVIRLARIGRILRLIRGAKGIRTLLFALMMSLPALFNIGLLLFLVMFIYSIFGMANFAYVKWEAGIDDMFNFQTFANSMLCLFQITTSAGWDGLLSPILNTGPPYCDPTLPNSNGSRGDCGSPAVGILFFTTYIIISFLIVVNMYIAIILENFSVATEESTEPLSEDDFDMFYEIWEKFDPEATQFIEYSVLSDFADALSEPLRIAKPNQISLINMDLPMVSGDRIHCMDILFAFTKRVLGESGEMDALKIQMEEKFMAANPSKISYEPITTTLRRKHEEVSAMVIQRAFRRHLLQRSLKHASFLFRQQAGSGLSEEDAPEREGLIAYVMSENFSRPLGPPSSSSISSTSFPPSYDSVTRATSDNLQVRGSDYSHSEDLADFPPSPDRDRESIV
Assay: Inhibition of human NaV1.5
pIC50: −log10 of the molar value.

- molecule: "Nc1nc(CC(=O)Nc2ccc(C[C@@H]3CCC([C@H](O)c4ccccc4)N3)cc2)cs1 (single isomer, unassigned)"
  pIC50: "< 4.52"
- molecule: "O=C(Nc1ccc(C[C@@H]2CC[C@H]([C@H](O)c3cccnc3)N2)cc1)[C@@H]1CCc2ccnn21"
  pIC50: "< 4.52"
- molecule: "Nc1nc2c(s1)CC[C@H]2C(=O)Nc1ccc(C[C@@H]2CC[C@H]([C@H](O)c3ccccc3)N2)cc1"
  pIC50: 5.25
- molecule: "O=C(Nc1ccc(C[C@@H]2CC[C@H]([C@H](O)c3cccnc3)N2)cc1)[C@@H]1CCc2scnc21"
  pIC50: "< 4.52"
- molecule: "Cc1nc2c(s1)CC[C@H]2C(=O)Nc1ccc(C[C@@H]2CC[C@H]([C@H](O)c3cccnc3)N2)cc1"
  pIC50: "< 4.52"
